Target: SARS-CoV-2 (WIV02 isolate) prefusion stabilized spike trimer protein (UniProt P0DTC2 14-1213)
Assay: ELISA
Give IC50 for every item shown.
Answers are plain numbers, in nM.

Record excerpt, results attached:
8-H3-A (antibody, V domains shown) VH: EVQLVESGGGLVQPKGSLKLSCAASGFTFNTYAMHWVRQAPGKGLEWVARIRSKSSNYATYYADSVKDRFTISRDDSQSMLYLQMNNLKTEDTAMYYCVRDHDYYGSSYWFTYWGQGTLVTVSA VL: DVVMTQTPLSLPVSLGDQASISCRSSQSLVHDNGNTYLHWFLQKPGQSPKLLIYKVSNRFSGVPDRFSGSGSGTDFTLKISRVETEDLGVYFCSQSTHVPWTFGGGTKLEIK = 19.4
6-O12-A (antibody, V domains shown) VH: QVQLQQPGTELVKPGASVKLSCKASGYTFTSYWMHWVKQRPGQGLEWIGNINPSNGGTNYNEKFRSKATLTVDKSSSTAYMQLSSLTSEDSAVYYCARLGWFLPLGSWGQGTTLTVSS VL: QIVLTQSPAIMSASLGEVITLTCSASSSVSYMHWYQQKSGTSPKLLIYSTSNLASGVPSRFSGSGSGTFYSLTISSVEAEDAADYYCHQWSGYMYTFGGGTKLEIK = 7.62
2-G20-A (antibody, V domains shown) VH: EVQLQQSGPELVKPGASVKMSCKASGYTFPSYVLHWVKQKPGQGLEWIGYIYPYNDGTNYNEKFKGKATLTSDKSSSTAYMELSSLTSEDSAVYYCARGDYGDSAWFPYWGQGTLVTVSA VL: DIVLTQSPASLAVSLGQRATISCRASKSVSTSGYSYMHWYQQKPGQPPKLLIYLASNLKSGVPARFSGGGSGTDFTLNIHPVEEEDAATYYCQLSRELPWTFGGGTKLEIK = 18.3
9-F6-A (antibody, V domains shown) VH: EVQLQQSGPELVKPGASVKMSCKASGYTFTSYIMHWVKQKPGQGLEWIGYILPYNDGTKYNEKFKGKATLTSDKSSSTAYMELRSLTSEDSAVYYCARWGYSNFLDSWGQGTTLTVSS VL: DIQMTQTTSSLSASLGDRVTISCRASQDINNYLNWYQQKPDGTVKLLIYYTSRLHSGVPSRFSGSGSGTDYSLTIRNLEQEDIATYFCQQGNTLPPTFGGGTKLEIK = 16.7

We next turn to a different binder, shown below.
Prompt: Quick check: IC50 of 4-M3-A (antibody, V domains shown) VH: EVQLQQSGPELVKPGDSVKISCKASGYSFTGYFMNWVMQSHGKSLEWIGRINPNNGETFYNQKFKGKATLTVDKSSDTAHMELRSLTSEDSAVYYCARGGTGTGWGQGTTLTVSS VL: DILMTQSPSSMSVSLGDTVSITCHASQGISSNIGWLQQKPGKSFKGLIYYGTNLEDGVPSRFSGSGSGADYSLTISSLESEDLADYYCIQYAQFPYTFGGGTKLEIK ?
Completion: 7.36
